molecular target: human p110β subunit of PI3K (PI3Kβ) (Homo sapiens); construct: His6 (N); assay: Solid-Phase Lipid Kinase p110β assay; settings: recombinant truncated (ΔN 1-108) p110β, 7.5 ng/well; otherwise as PI3Kα assay
Sequence (P42338 109-1070): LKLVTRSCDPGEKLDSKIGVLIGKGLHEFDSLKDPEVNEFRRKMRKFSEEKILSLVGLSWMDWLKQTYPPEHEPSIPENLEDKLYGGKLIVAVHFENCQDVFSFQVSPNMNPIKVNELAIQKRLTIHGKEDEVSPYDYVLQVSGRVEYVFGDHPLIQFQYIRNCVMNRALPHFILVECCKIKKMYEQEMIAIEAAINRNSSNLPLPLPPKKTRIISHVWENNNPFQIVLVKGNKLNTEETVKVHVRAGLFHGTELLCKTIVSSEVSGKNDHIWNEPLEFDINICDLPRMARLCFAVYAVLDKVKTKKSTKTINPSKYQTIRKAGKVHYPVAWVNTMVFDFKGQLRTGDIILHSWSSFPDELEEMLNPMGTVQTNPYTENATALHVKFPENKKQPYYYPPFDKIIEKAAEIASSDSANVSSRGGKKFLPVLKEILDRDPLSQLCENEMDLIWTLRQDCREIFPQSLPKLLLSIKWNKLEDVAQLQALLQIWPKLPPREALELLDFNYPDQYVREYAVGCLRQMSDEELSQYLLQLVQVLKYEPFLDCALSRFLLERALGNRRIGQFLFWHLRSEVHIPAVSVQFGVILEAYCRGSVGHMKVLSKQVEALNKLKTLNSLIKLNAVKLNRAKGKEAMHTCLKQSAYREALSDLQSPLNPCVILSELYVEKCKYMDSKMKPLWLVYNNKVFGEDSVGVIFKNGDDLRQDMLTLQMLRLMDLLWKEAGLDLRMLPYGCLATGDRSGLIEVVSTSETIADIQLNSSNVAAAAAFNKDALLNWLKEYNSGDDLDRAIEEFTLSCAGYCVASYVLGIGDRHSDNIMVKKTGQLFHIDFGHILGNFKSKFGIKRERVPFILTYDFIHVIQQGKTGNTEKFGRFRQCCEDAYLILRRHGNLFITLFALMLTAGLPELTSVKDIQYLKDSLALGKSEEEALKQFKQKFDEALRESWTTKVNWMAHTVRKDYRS
pIC50: −log10 of the molar value.

MOLECULE: COc1c(OCCCN2CCOCC2=O)ccc2c1N=C(NC(=O)c1cnc(N)nc1)N1CCN=C21 [drawing 16]
pIC50: 7.89

====

target: human p110α subunit of PI3K (PI3Kα) (Homo sapiens, UniProt P42336); construct: His6 (N); experiment: Solid-Phase Lipid Kinase p110α assay; conditions: recombinant truncated (ΔN 1-108) p110α, 7.5 ng/well; final 10 μM ATP; RT 2 hours
Sequence (P42336 109-1068): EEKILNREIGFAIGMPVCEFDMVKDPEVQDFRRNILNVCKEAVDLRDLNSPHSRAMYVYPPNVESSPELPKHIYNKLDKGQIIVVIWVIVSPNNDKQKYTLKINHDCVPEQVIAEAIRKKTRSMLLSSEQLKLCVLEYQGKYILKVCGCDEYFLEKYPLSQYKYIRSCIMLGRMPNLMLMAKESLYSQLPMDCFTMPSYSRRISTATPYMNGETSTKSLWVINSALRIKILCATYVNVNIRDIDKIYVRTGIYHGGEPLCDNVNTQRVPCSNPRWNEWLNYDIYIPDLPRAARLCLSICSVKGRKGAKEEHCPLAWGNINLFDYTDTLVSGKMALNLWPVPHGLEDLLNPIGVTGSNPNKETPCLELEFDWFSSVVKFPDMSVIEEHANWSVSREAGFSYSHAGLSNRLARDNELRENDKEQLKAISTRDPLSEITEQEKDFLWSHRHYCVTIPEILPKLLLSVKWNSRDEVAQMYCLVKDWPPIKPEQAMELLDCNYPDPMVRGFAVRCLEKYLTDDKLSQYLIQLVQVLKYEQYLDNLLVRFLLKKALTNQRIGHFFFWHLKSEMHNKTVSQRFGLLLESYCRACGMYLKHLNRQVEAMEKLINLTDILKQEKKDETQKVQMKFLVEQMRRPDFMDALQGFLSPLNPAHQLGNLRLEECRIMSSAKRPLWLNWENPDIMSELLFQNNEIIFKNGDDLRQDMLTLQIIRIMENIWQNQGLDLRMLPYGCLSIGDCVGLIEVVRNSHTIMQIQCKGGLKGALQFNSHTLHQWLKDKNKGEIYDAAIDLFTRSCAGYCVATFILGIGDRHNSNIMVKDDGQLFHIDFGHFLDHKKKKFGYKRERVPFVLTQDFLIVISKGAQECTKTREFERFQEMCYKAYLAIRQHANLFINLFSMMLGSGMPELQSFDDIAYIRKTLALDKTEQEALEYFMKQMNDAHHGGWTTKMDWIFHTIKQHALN

MOLECULE: COc1c(OCCCN2CCOCC2=O)ccc2c1N=C(NC(=O)c1cnc(N)nc1)N1CCN=C21 [drawing 15]
TESTED_ON: human p110α subunit of PI3K (PI3Kα) (Homo sapiens, UniProt P42336)
IC50: 0.7 nM
